experiment: Efflux ratio of permeability from basolateral to apical side over apical to basolateral side in human Caco2 cells incubated for 2 hrs by HPLC method; type: ADME, cell-based; details: Caco-2
Value type: efflux ratio at 2 h
Numbers only.

// solved cases for efflux ratio at 2 h follow
{"Cpd smiles": "CCC(CC)C(=O)O[C@H]1[C@@H](F)[C@H](n2cnc3c(N)ncnc32)O[C@@H]1CNS(=O)(=O)NC(=O)c1ccccc1O.CCN(CC)CC", "Value type": "efflux ratio at 2 h", "Reading": 7.6}
{"Cpd smiles": "CCCC(=O)O[C@H]1[C@@H](F)[C@H](n2cnc3c(N)ncnc32)O[C@@H]1CNS(=O)(=O)NC(=O)c1ccccc1O.CCN(CC)CC", "Value type": "efflux ratio at 2 h", "Reading": 7}
{"Cpd smiles": "CC(C)C(=O)O[C@H]1[C@@H](F)[C@H](n2cnc3c(N)ncnc32)O[C@@H]1CNS(=O)(=O)NC(=O)c1ccccc1O.CCN(CC)CC", "Value type": "efflux ratio at 2 h", "Reading": 8.5}
{"Cpd smiles": "CC(=O)O[C@H]1[C@@H](F)[C@H](n2cnc3c(N)ncnc32)O[C@@H]1CNS(=O)(=O)NC(=O)c1ccccc1O.CCN(CC)CC", "Value type": "efflux ratio at 2 h", "Reading": 1.5}

Shift focus to the following entry.
What efflux ratio at 2 h value was documented for this molecule, `CCCCCCCC(=O)O[C@H]1[C@@H](F)[C@H](n2cnc3c(N)ncnc32)O[C@@H]1CNS(=O)(=O)NC(=O)c1ccccc1O.CCN(CC)CC` ? 1.8

====

test: Apparent permeability from apical to basolateral side in human Caco2 cells at 100 uM incubated for 2 hrs by HPLC method; assay type: ADME, cell-based; details: Caco-2
Value type: Papp A→B at 2 h, 100 µM (×10⁻⁶ cm/s)
Numbers only, in ×10⁻⁶ cm/s.

{"Cpd smiles": "CCC(CC)C(=O)O[C@H]1[C@@H](F)[C@H](n2cnc3c(N)ncnc32)O[C@@H]1CNS(=O)(=O)NC(=O)c1ccccc1O.CCN(CC)CC", "Units of measure": "×10⁻⁶ cm/s", "Papp A→B at 2 h, 100 µM": 0.5}

For every item below, please supply its Papp A→B at 2 h, 100 µM.
1. CCCCCCCC(=O)O[C@H]1[C@@H](F)[C@H](n2cnc3c(N)ncnc32)O[C@@H]1CNS(=O)(=O)NC(=O)c1ccccc1O.CCN(CC)CC
2. CC(=O)O[C@H]1[C@@H](F)[C@H](n2cnc3c(N)ncnc32)O[C@@H]1CNS(=O)(=O)NC(=O)c1ccccc1O.CCN(CC)CC
3. CC(C)C(=O)O[C@H]1[C@@H](F)[C@H](n2cnc3c(N)ncnc32)O[C@@H]1CNS(=O)(=O)NC(=O)c1ccccc1O.CCN(CC)CC
4. CCCC(=O)O[C@H]1[C@@H](F)[C@H](n2cnc3c(N)ncnc32)O[C@@H]1CNS(=O)(=O)NC(=O)c1ccccc1O.CCN(CC)CC

[3.9, 1.1, 0.4, 0.5]

====

tested on: Plasma; assay: Stability in Sprague-Dawley rat plasma assessed as residual compound after 6 hrs by HPLC method; type: ADME, cell-free
Provide the recorded Stability for the entries that follow.

// solved cases for Stability follow
{"Cpd smiles": "CCC(=O)O[C@H]1[C@@H](F)[C@H](n2cnc3c(N)ncnc32)O[C@@H]1CNS(=O)(=O)NC(=O)c1ccccc1O.CCN(CC)CC", "Stability": "58%"}
{"Cpd smiles": "CCCCC(=O)O[C@H]1[C@@H](F)[C@H](n2cnc3c(N)ncnc32)O[C@@H]1CNS(=O)(=O)NC(=O)c1ccccc1O.CCN(CC)CC", "Stability": "53%"}
{"Cpd smiles": "CCCC(=O)O[C@H]1[C@@H](F)[C@H](n2cnc3c(N)ncnc32)O[C@@H]1CNS(=O)(=O)NC(=O)c1ccccc1O.CCN(CC)CC", "Stability": "61%"}

For every item below, please supply its Stability.
1. CCCCCCCCCCCC(=O)O[C@H]1[C@@H](F)[C@H](n2cnc3c(N)ncnc32)O[C@@H]1CNS(=O)(=O)NC(=O)c1ccccc1O.CCN(CC)CC
2. CCC(CC)C(=O)O[C@H]1[C@@H](F)[C@H](n2cnc3c(N)ncnc32)O[C@@H]1CNS(=O)(=O)NC(=O)c1ccccc1O.CCN(CC)CC
3. CCCCCCCC(=O)O[C@H]1[C@@H](F)[C@H](n2cnc3c(N)ncnc32)O[C@@H]1CNS(=O)(=O)NC(=O)c1ccccc1O.CCN(CC)CC
4. CC(C)C(=O)O[C@H]1[C@@H](F)[C@H](n2cnc3c(N)ncnc32)O[C@@H]1CNS(=O)(=O)NC(=O)c1ccccc1O.CCN(CC)CC

1: 95%; 2: 93%; 3: 86%; 4: 72%
